Assay: Toxicity in human immortalized hepatocytes
Assay type: cell-based, Hepatocyte
QUANTITY: IC50

[[record]]
compound = "CCN(CC)C(C)CCCNc1nccc(NCc2ccc(Cl)cc2Cl)n1.N (stereo unspecified)"
quantity = "IC50"
experimental_value = "> 40 µM"


---

Target: C-C chemokine receptor type 4 (Homo sapiens)
Sequence (P51679 whole entry): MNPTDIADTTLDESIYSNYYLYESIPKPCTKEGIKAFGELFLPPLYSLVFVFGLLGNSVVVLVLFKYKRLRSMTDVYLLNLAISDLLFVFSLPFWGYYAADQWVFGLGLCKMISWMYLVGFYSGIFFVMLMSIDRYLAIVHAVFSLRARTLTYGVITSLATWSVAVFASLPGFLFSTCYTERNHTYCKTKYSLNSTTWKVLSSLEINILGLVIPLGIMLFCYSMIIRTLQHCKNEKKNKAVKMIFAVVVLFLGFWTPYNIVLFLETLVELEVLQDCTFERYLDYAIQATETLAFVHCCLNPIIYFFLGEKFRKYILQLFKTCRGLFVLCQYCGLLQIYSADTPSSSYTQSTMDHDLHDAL
Assay: Antagonist activity at human CCR4 expressed in CEMS529 cells assessed as effect on calcium mobilization
Format: functional, cell-based
QUANTITY: IC50 (nM)

[[record]]
molecule = "CCN(CC)C(C)CCCNc1nccc(NCc2ccc(Cl)cc2Cl)n1.N (stereo unspecified)"
experimental_value = 800


---

Biological target: CYP450 (isoform not stated) (Homo sapiens, UniProt P04798+P05177+P05181+P08684+P10632+P10635+P11509+P11712+P13584+P20813+P20815+P20853+P24462+P24903+P33260+P33261+P51589+P78329+P98187+Q02928+Q08477+Q16678+Q16696+Q5TCH4+Q6VVX0+Q7Z449+Q8TAV3+Q96SQ9+Q9HB55)
Assay: Inhibition of CYP450
Format: ADME
QUANTITY: IC50

[[record]]
compound = "CCN(CC)C(C)CCCNc1nccc(NCc2ccc(Cl)cc2Cl)n1.N (stereo unspecified)"
experimental_value = "> 1000 nM"


---

Parameter IC50: see the listing below.
Target: C-C chemokine receptor type 4 (Homo sapiens)
Assay: Displacement of [125I]MDC from human CCR4 expressed in HEK293 cells
Type: cell-based
QUANTITY: IC50 (nM)

[[record]]
molecule = "CCN(CC)CCCC(C)Nc1nc(NCc2ccc(Cl)cc2Cl)c2cccnc2n1 (stereo not given)"
target_system = "C-C chemokine receptor type 4 (Homo sapiens)"
experimental_value = 140

[[record]]
molecule = "CCN(CC)CCCC(C)Nc1nc(NCc2ccc(Cl)cc2Cl)nc2ncn(CC)c12 (stereo not given)"
target_system = "C-C chemokine receptor type 4 (Homo sapiens)"
experimental_value = 2600

[[record]]
molecule = "CCN(CC)CCCC(C)Nc1nc(NCc2ccc(Cl)cc2Cl)c2ccccc2n1 (stereo not given)"
target_system = "C-C chemokine receptor type 4 (Homo sapiens)"
experimental_value = 500

[[record]]
molecule = "CCN(CC)CCCC(C)Nc1nc(NCc2ccc(Cl)cc2Cl)nc2nc[nH]c12 (stereo not given)"
target_system = "C-C chemokine receptor type 4 (Homo sapiens)"
experimental_value = 2100

[[record]]
molecule = "CCN(CC)CCCC(C)Nc1ccc2cnn(Cc3ccc(Cl)cc3Cl)c2n1 (stereo not given)"
target_system = "C-C chemokine receptor type 4 (Homo sapiens)"
experimental_value = 280

[[record]]
molecule = "CCN(CC)CCCC(C)Nc1nc(NCc2ccc(Cl)cc2Cl)c2c(ncn2CC)n1 (stereo not given)"
target_system = "C-C chemokine receptor type 4 (Homo sapiens)"
experimental_value = 1100

[[record]]
molecule = "CCN(CC)CCCC(C)Nc1nc(NCc2ccc(Cl)cc2Cl)c2[nH]cnc2n1 (stereo not given)"
target_system = "C-C chemokine receptor type 4 (Homo sapiens)"
experimental_value = 4900

[[record]]
molecule = "CCN(CC)CCCC(C)Nc1ncc2ncn(Cc3ccc(Cl)cc3Cl)c2n1 (stereo not given)"
target_system = "C-C chemokine receptor type 4 (Homo sapiens)"
experimental_value = 820

[[record]]
molecule = "CCN(CC)CCCC(C)Nc1nc(NC)nc(NCc2ccc(Cl)cc2Cl)n1 (stereo not given)"
target_system = "C-C chemokine receptor type 4 (Homo sapiens)"
experimental_value = 3600

[[record]]
molecule = "O=C([C@@H]1CCCN1)N1CCN(c2nc(NCc3ccc(Cl)cc3Cl)c3cccnc3n2)CC1"
target_system = "C-C chemokine receptor type 4 (Homo sapiens)"
experimental_value = 80

